All figures here come from PubChem BioAssay AID1963971.

Exercise: state measured viability, T/C for each of the compounds provided.
System: 953936-095-R-J2-PDC spheroids with HUVEC/MSC, viability;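 further: spheroids exposed to compounds for seven days before read-out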
Assay: Anticancer human tumor 953936-095-R-J2-PDC patient-derived cervical squamous cell carcinoma cell line growth inhibition [PI3K]
Conditions: second compound 1 µM; first compound 0.316 µM; stronger effect = lower value
From the text: Combinatorial screen of targeted agents with the PI3K inhibitors inavolisib, alpelisib, duvelisib, and copanlisib in multi-cell type tumor spheroids A high-throughput screen of multi-cell type tumor spheroids was designed to identify active combinations of targeted small molecules and PI3K pathway inhibitors. […] Compounds. […] If the clinical Cmax for an agent had not been determined, the highest concentration tested was 10 microM. […]
Answers are plain numbers, in %.

{"columns": ["Compound", "viability, T/C, %"],
 "data": [
  ["C[C@@H](NC(=O)c1ncnc(N)c1Cl)c1ncc(C(=O)Nc2cc(C(F)(F)F)c(Cl)cn2)s1 + Cc1nc(NC(=O)N2CCCC2C(N)=O)sc1-c1ccnc(C(C)(C)C(F)(F)F)c1", 47.2],
  ["CC1(C)CCC(Nc2ncc(C(F)(F)F)c(-c3c[nH]c4c(P(C)(C)=O)c(C#N)ccc34)n2)CN1 (stereo unspecified) + COc1c(OCCCN2CCOCC2)ccc2c3n(c(=NC(=O)c4cnc(N)nc4)nc12)CCN3", 1.12],
  ["CNC(=O)c1ccc(N2C(=S)N(c3ccc(C#N)c(C(F)(F)F)c3)C(=O)C2(C)C)cc1F + Cc1nc(NC(=O)N2CCCC2C(N)=O)sc1-c1ccnc(C(C)(C)C(F)(F)F)c1", 44.3],
  ["CC1(C)CCC(Nc2ncc(C(F)(F)F)c(-c3c[nH]c4c(P(C)(C)=O)c(C#N)ccc34)n2)CN1 (stereo unspecified) + CC(Nc1ccc2c(c1)OCCn1cc(N3C(=O)OCC3C(F)F)nc1-2)C(N)=O", 17.7],
  ["CCCS(=O)(=O)Nc1ccc(F)c(C(=O)c2c[nH]c3ncc(-c4ccc(Cl)cc4)cc23)c1F + CC(Nc1ncnc2nc[nH]c12)c1cc2cccc(Cl)c2c(=O)n1-c1ccccc1", 96.5],
  ["CCCS(=O)(=O)Nc1ccc(F)c(C(=O)c2c[nH]c3ncc(-c4ccc(Cl)cc4)cc23)c1F + Cc1nc(NC(=O)N2CCCC2C(N)=O)sc1-c1ccnc(C(C)(C)C(F)(F)F)c1", 47]
]}

Below are 5 compounds. Give each one its viability, T/C.
1. CC1(C)CCC(CN2CCN(c3ccc(C(=O)NS(=O)(=O)c4ccc(NCC5CCOCC5)c([N+](=O)[O-])c4)c(Oc4cnc5[nH]ccc5c4)c3)CC2)=C(c2ccc(Cl)cc2)C1 + CC(Nc1ncnc2nc[nH]c12)c1cc2cccc(Cl)c2c(=O)n1-c1ccccc1
2. Cn1nccc1Nc1nccc(-c2ccn(C(CO)c3ccc(Cl)c(F)c3)c(=O)c2)n1 (stereo unspecified) + CC(Nc1ncnc2nc[nH]c12)c1cc2cccc(Cl)c2c(=O)n1-c1ccccc1
3. Cn1ncc(Cl)c1-c1cc(C(=O)NC(CN)Cc2cccc(F)c2)sc1Cl (stereo unspecified) + CC(Nc1ccc2c(c1)OCCn1cc(N3C(=O)OCC3C(F)F)nc1-2)C(N)=O
4. C[C@@H](NC(=O)c1ncnc(N)c1Cl)c1ncc(C(=O)Nc2cc(C(F)(F)F)c(Cl)cn2)s1 + COc1c(OCCCN2CCOCC2)ccc2c3n(c(=NC(=O)c4cnc(N)nc4)nc12)CCN3
5. CCN1CCN(Cc2ccc(Nc3ncc(F)c(-c4cc(F)c5nc(C)n(C(C)C)c5c4)n3)nc2)CC1 + CC(Nc1ncnc2nc[nH]c12)c1cc2cccc(Cl)c2c(=O)n1-c1ccccc1

1: 82.5; 2: 95.9; 3: 18.8; 4: 2.83; 5: 76
